experiment: Cytotoxicity against HUVEC cells assessed as inhibition of cell growth; assay type: toxicity, cell-based; conditions: human
endpoint: pIC50
# reply with the number alone; pIC50 is -log10 of concentration in mol/L

// solved cases for pIC50 follow
* Cc1cnc(Nc2ccc(N3CCNCC3)cc2)nc1Nc1cccc(S(=O)(=O)NC(C)(C)C)c1 | 6.02
* Cc1cc(COC(=O)N2CCN(c3ccc(Nc4ncc(C)c(Nc5cccc(S(=O)(=O)NC(C)(C)C)c5)n4)cc3)CC2)c(OCc2cnc([N+](=O)[O-])n2C)c(COC(=O)n2cc(NC(=O)NC3CC3)c(-c3nc4cc(CN5CCOCC5)ccc4[nH]3)n2)c1 | 4.07

Now consider the entry below.
The recorded pIC50 for O=C(Nc1c[nH]nc1-c1nc2cc(CN3CCOCC3)ccc2[nH]1)NC1CC1 is 5.75
